Cited source: patent US9371374

molecular target: HCV Core 134-171-TT peptide (ALRZ-9 peptide) (HCV-1); assay: SPR, captured mAb;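 also: Anti-HCV Core mAbs from hybridoma supernatants held on a rabbit anti-mouse IgG CM5 surface, peptide flowed over 3 min then 4 min dissociation, duplicate concentrations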
observation-type: koff (s⁻¹)
Expressed in s⁻¹, but write only the number.

* HCV 208B-174 (antibody, V domains shown) VH: EVKLEESGGGLVQPGGSMKLSCVASGFSFSSYWMSWVRQSPEKGLDWVAEIRLRSDNYATHYAESVKGRFTISRDDSISRLYLQMNTLRAEDTGIYYCTWMTYWGQGTLVTVSA VL: QNVLTQSPAIMSASPGEKVTMSCSASSSVTYMFWYQLKPESSPRLLIYDTSNLASGVPVRFSGSGSGTSYSLTISRMEAEDAATYYCQEWSSYPLTFGAGTKLDLKR | 0.00018
* HCV 208B-560 (antibody, V domains shown) VH: EVQLQQSGPELEKPGASVKISCKTSGYTFTEYAMHWVKQSHGMSLEWIGGINPSNGNAIYNQIFKDKATLTVDRSSSTAYMGLRSLTFGDSGVYFCVRRQLDFFDYWGQGASLTVSS VL: DIVVTQSPASLAVSLGQRATISCRASQSVSTSRYSYLHWYQQKPGQPPKLLIKYASNLESGVPARFSGSGSGTDFTLNIHPVGEEDTATYYCQHSWEFPFTFGSGTKLEIKR | 0.00026

Continue with the binder presented below.
## Task Any idea what its koff is? The binder is HCV 208A-605 (antibody, V domains shown) VH: EVQLQQSGPELEKPGASVKISCKTSGYTFTEYAIHWVKQSHGMSLEWIGGINPSNGNAIYNQIFKDKATLTVDRSSSTAYMGLRSLTFGDSGVYFCVRRQLDFFDYWGQGASLTVSS VL: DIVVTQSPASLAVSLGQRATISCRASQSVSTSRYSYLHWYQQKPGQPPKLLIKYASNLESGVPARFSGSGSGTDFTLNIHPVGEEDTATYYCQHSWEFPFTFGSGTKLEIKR
## Result 0.00037
